Test system: Lung_H1975
METHOD NOTES: Cell proliferation assay (ATPlite)
Type: cell-based
TEST PARAMETERS: 72 hours, 0.5% fetal bovine serum
Assign IC50 to each entry below.

Prompt line: Using known records, supply IC50 for COc1cc2ncnc(Nc3ccc(F)c(Cl)c3)c2cc1OCCCCCCC(=O)NO [Compound 6]
Response line: 100 to 1000 nM

Prompt line: Using known records, supply IC50 for C#Cc1cccc(Nc2ncnc3cc(OC)c(NC(=O)CCCCCCC(=O)NO)cc23)c1 [Compound 44]
Response line: 1000 to 10000 nM

---

Assign IC50 to each entry below.

Prompt line: Find the measured IC50 of COc1cc2ncnc(Nc3ccc(F)c(Cl)c3)c2cc1OCCOc1ccc(C(=O)NO)cc1 with human EGFR (Homo sapiens, UniProt P00533) as test system.
Sequence (P00533 672-1210): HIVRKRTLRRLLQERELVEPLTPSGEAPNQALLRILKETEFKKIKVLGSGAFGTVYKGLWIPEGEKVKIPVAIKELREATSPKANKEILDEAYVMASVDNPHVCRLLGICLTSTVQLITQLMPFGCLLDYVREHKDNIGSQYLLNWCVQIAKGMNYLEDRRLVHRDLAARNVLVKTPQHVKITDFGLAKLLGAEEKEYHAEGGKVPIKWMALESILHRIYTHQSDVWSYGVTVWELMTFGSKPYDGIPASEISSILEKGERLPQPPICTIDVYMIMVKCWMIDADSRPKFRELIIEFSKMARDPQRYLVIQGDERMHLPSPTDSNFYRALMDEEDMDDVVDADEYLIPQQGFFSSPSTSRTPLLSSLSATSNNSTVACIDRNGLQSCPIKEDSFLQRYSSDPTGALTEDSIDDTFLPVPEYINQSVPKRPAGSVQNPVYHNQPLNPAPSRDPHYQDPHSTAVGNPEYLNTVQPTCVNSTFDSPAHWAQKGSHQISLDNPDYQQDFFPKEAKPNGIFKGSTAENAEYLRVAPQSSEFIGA
Response line: < 100 nM

Prompt line: Find the measured IC50 of COCCOc1cc2ncnc(Nc3ccc(F)c(Cl)c3)c2cc1NC(=O)CCCCCCC(=O)NO with human EGFR (Homo sapiens, UniProt P00533) as test system.
Response line: < 100 nM

Where do these numbers come from? They come from patent US8119616B2.
